# MIC per entry
Test system: E. coli ATCC 25922
Assay: MIC tube-dilution assay
Assay type: cell-based, Escherichia coli
Conditions: E. coli ATCC29522 (head); highest concentration used 200 μM

Molecule	MIC
O=C(O)c1cccc(-c2ccc(C=c3sc4n(c3=O)C(c3ccc(Cl)cc3)C=C(c3ccccc3)N=4)o2)c1 (stereo not drawn)	>200 µM
CCOC(=O)C1=C(c2ccccc2)N=c2sc(=Cc3ccc(-c4cccc(C(=O)O)c4)o3)c(=O)n2C1c1ccc(F)cc1 (stereo not drawn)	>200 µM
O=C(O)c1cccc(-c2ccc(C=c3sc4n(c3=O)C(c3ccc(F)cc3)C=C(c3ccccc3)N=4)o2)c1 (stereo not drawn)	>200 µM
